The values you see were collected from a melting point compilation (Tetko et al.; mined from patent text by program, amines drawn as free bases though some values may be those of a salt).

resultType: melting point

compound: Cc1cccc(COc2ccc(C#N)cc2Cl)c1
endpointResult: 73 to 75 °C
//
compound: COCCC(=O)N[C@H]1CC[C@H](CCN2CCN(c3nc(C)cc4c3CCO4)CC2)CC1
endpointResult: 178 °C
//
compound: Cc1nc2c(-c3cccc(N4CCN(C5CCN(C)CC5)CC4)c3)cnn2c(N)c1-c1cccc(Cl)c1
endpointResult: 180 to 185 °C
//
compound: COc1ccc(Oc2ccc3c(c2)C=C(C(=O)O)C(C(F)(F)F)O3)cc1 (stereo unspecified)
endpointResult: 182 to 183 °C
//
compound: Cc1cc(C)c(Nc2nc(C)ccc2S(=O)(=O)c2ccc(OCCCC#N)cc2)c(C)c1
endpointResult: 160 to 162 °C
//
compound: CC(=O)Nc1ncc(S(=O)(=O)NC(C)(C)CO)s1
endpointResult: 206 °C
//
compound: CCCCCCCCc1nc2c(N)nc3ccccc3c2n1CCOCC#Cc1ccccc1
endpointResult: 138 to 139 °C
//
compound: O=C(O)C1=CCC(c2ccccc2)(c2ccccc2)CC1
endpointResult: 227 to 229 °C

Request: What measured melting point goes with O=[N+]([O-])c1cc2nc(O)c(O)nc2c2nccnc12 ?
Response: > 300 °C
